Test system: HEK-293T
Test: Multiplex assay against HEK293T
Type: toxicity, cell-based
Conditions: human, 48 h, 1 µM, compound concentration 1 uM, replicate 1
Rule: Population Apoptotic (%) of 40% or more gives Satisfied; anything lower gives Not satisfied.

Please tell me: is the compound C=CC(=O)Nc1ccc2ncnc(Nc3ccc(OCc4cccc(F)c4)c(Cl)c3)c2c1.Cc1ccc(S(=O)(=O)O)cc1 at or over 40% in terms of Population Apoptotic (%)?
Satisfied

----------
Test system: HEK-293T
Assay: Multiplex assay against HEK293T;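 as to Population Tubulin-Different-Phenotype (%): share of the cells with healthy nuclei that show this phenotype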
Type: toxicity, cell-based
Details: human, 48 h, 10 µM, compound concentration 10 uM, replicate 1
Quantity: Population Tubulin-Different-Phenotype (%)
# output: bare number, implied unit %

COc1cccc([C@@H](C)NCCCc2ccccc2Cl)c1.Cl [TECALCET HYDROCHLORIDE]; 89
COc1cc(-n2cnc3cc(-c4ccc(Cl)cc4)sc3c2=O)ccc1OCCN1CCCC1; 100
CCOCCn1cc(C(=O)Nc2ccc(-n3nc(-c4cccnc4)cc3C(F)(F)F)cn2)ccc1=O; 93
O=C1NCN(c2ccccc2)C12CCN(CCCOc1ccc(F)cc1)CC2 [SPIRAMIDE]; 89
Cc1[nH]c(/C=C2\C(=O)Nc3ccc(S(=O)(=O)N(C)c4cccc(Cl)c4)cc32)c(C)c1C(=O)N1CCN(C)CC1; 96
CNc1nc(NCc2ccc(NS(C)(=O)=O)cc2Cl)cc(-c2ccccn2)n1; 93

What the record says about C=CC(=O)Nc1cccc(C(=O)Nc2ccc(Nc3cc(-c4[nH]c(SC)nc4C)ccn3)cc2)c1 : Population Tubulin-Different-Phenotype (%) is 69

What the record says about CC(C)(O)CNc1ncc(-c2ccnc(Nc3ccnc(Cl)c3)n2)c(CC2CC2)n1 : Population Tubulin-Different-Phenotype (%) is 100

What the record says about COc1ncc(-c2ccc3nccc(-c4ccnnc4)c3c2)cc1NS(=O)(=O)c1ccc(F)cc1F : Population Tubulin-Different-Phenotype (%) is 57

What the record says about COc1cc2nccc(Oc3ccc(NC(=O)Nc4cc(C)on4)c(Cl)c3)c2cc1OC.O : Population Tubulin-Different-Phenotype (%) is 98

What the record says about C[C@@]1(C(=O)Nc2ccc(F)nc2)CCCN1c1nc(Nc2cc(C3CC3)n[nH]2)c2cccn2n1 : Population Tubulin-Different-Phenotype (%) is 94

What the record says about CCn1c(=O)c(-c2ccc(Cl)cc2Cl)cc2cnc(Nc3ccc(N4CCNCC4)c(F)c3)nc21 : Population Tubulin-Different-Phenotype (%) is 0

----------
Tested on: Fibroblast
Assay: Multiplex assay against human fibroblast
Assay type: toxicity, cell-based
Conditions: 24 h, 10 µM, compound concentration 10 uM, replicate 1
Rule: Population Pyknosed Nuclei (%) of 20% or more gives YES; anything lower gives NO.

Please tell me: is the compound CC[C@H](C)C(=O)O[C@H]1C[C@@H](C)C=C2C=C[C@H](C)[C@H](CC[C@@H]3C[C@@H](O)CC(=O)O3)[C@H]21 [LOVASTATIN] at or over 20% in terms of Population Pyknosed Nuclei (%)?
YES

Please tell me: is the compound Cn1cc(-c2[nH]c3cc(NC(=O)[C@H](N)C4CCCCC4)cc4c3c2C=NNC4=O)cn1 at or over 20% in terms of Population Pyknosed Nuclei (%)?
NO

----------
System: U2OS
Assay: Multiplex assay against U2OS
Type: toxicity, cell-based
Conditions: human, 24 h, 1 µM, compound concentration 1 uM, replicate 1
Quantity: Population Mitochondria Different-Phenotype (%)
# output: bare number, implied unit %

CN1CCC[C@@H]1CCO[C@](C)(c1ccccc1)c1ccc(Cl)cc1.O=C(O)/C=C/C(=O)O [CLEMASTINE FUMARATE]; 9
C[C@@]1(C(=O)Nc2ccc(F)nc2)CCCN1c1nc(Nc2cc(C3CC3)n[nH]2)c2cccn2n1; 32
Cc1nc(Nc2n[nH]c3c2CN(C(=O)N[C@H](CN(C)C)c2ccccc2)C3(C)C)c2sccc2n1; 19
CCN(CC)CCCCNc1ncc2cc(-c3cc(OC)cc(OC)c3)c(NC(=O)NC(C)(C)C)nc2n1; 28
CC(C)(O)CNc1ncc(-c2ccnc(Nc3ccnc(Cl)c3)n2)c(CC2CC2)n1; 22

What the record says about Cc1[nH]c(/C=C2\C(=O)Nc3ccc(S(=O)(=O)N(C)c4cccc(Cl)c4)cc32)c(C)c1C(=O)N1CCN(C)CC1 : Population Mitochondria Different-Phenotype (%) is 51

What the record says about CN(C)C(=O)N[C@H]1CC[C@H](CCN2CCN(c3cccc(Cl)c3Cl)CC2)CC1.Cl [CARIPRAZINE HYDROCHLORIDE] : Population Mitochondria Different-Phenotype (%) is 17

These entries and their values trace back to ChEMBL document CHEMBL4689842.
